Taken from paper PMC12136037.

target: ~100 representative kinases (Homo sapiens, UniProt Q13043)
Construct: Recombinant protein kinase domains with a concentration of 2 μM
Sequence (Q13043 whole entry, the tested form may be a part): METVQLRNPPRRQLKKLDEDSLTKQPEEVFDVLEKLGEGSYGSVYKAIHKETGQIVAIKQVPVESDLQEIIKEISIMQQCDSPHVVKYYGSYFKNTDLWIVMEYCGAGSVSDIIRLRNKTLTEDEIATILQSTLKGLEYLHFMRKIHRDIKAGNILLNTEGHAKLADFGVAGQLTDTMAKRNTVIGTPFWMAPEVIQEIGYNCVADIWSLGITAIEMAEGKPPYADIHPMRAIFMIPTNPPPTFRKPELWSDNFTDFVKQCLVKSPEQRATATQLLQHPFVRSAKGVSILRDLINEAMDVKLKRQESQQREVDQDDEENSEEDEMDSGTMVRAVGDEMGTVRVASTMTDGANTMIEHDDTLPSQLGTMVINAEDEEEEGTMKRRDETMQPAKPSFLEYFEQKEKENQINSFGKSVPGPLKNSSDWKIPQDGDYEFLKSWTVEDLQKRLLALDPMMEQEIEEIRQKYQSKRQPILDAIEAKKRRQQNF
assayName: DSF 100 kinase selectivity screen;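 further: compound tested at 20 µM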
Type: binding
particulars: Protein STK4; DSF; average of three replicates
Description: Recombinant protein kinase domains with a concentration of 2 μM were mixed with a 20 μM compound solution in dimethyl sulfoxide (DMSO), 20 mM Hepes (pH 7.5), and 500 mM NaCl. SYPRO Orange (5000×, Invitrogen) was added as a fluorescence probe (1μl/ml). Subsequently, temperature-dependent protein unfolding profiles were measured using the QuantStudio 5 realtime PCR machine (Thermo Fisher Scientific, Waltham, MA, USA). […] The temperature was raised with a step rate of 3°C/min. […]
Give dTm for every item shown.
Numbers only, in K.

Example cases with answers are listed next.
CCc1ccc(NC(=O)C2(C(=O)Nc3cccc(-c4c[nH]c5ncnc(N6CCOCC6)c45)c3)CC2)cc1    5.52
O=C(Nc1cccc(-c2c[nH]c3ncnc(N4CCOCC4)c23)c1)C1(C(=O)Nc2ccc(F)c(Cl)c2)CC1    6.48
CCSc1nc(NC)c2c(-c3cccc(NC(=O)Nc4cc(C(C)(C)C)nn4-c4ccc(C)cc4)c3)c[nH]c2n1    0.80

Quick request: dTm for each listed item, please.
1. Cn1cc(-c2c[nH]c3ncnc(N4CCOCC4)c23)cc1C#N
2. O=C(Nc1cccc(-c2c[nH]c3ncnc(N4CCOCC4)c23)c1)C1(C(=O)Nc2ccc(F)cc2F)CC1
3. CNC(=O)c1cc(Oc2ccc(NC(=O)Nc3cc(C(C)(C)C)nn3-c3ccc4ncccc4c3)c(F)c2)ccn1 [Rebastinib, reference compound]
4. COc1cc2c(Oc3ccc(NC(=O)C4(C(=O)Nc5ccc(F)cc5)CC4)cc3F)ccnc2cc1OCCCN1CCOCC1 [Foretinib, reference compound]

Outgoing:
4.12
4.75
7.33
8.95

* * *

target: ~100 representative kinases (Homo sapiens, UniProt P45983)
Construct: Recombinant protein kinase domains with a concentration of 2 μM
Sequence (P45983 whole entry, the tested form may be a part): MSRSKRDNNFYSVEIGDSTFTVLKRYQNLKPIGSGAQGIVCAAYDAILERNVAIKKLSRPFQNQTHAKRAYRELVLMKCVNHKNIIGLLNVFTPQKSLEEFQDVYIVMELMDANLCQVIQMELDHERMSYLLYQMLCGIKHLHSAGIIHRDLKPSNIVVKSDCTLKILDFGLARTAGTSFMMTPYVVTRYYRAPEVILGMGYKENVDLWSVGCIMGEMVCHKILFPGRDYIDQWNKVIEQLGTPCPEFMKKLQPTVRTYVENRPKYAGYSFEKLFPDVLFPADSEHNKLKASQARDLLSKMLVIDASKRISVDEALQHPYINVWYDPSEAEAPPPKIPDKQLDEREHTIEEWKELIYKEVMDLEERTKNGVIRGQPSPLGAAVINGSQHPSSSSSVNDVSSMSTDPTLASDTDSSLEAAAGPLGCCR
assayName: DSF 100 kinase selectivity screen;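 further: compound tested at 20 µM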
Type: binding
particulars: protein MAPK8; average of three replicates
valueKind: dTm (K)
Numbers only, in K.

In the examples that follow, each entry is paired with its recorded dTm.
CCc1ccc(NC(=O)C2(C(=O)Nc3cccc(-c4c[nH]c5ncnc(N6CCOCC6)c45)c3)CC2)cc1    1.56
Cc1ccc(C(=O)Nc2ccc(CN3CCN(C)CC3)c(C(F)(F)F)c2)cc1C#Cc1cnc2[nH]ncc2c1 [GZD-824, reference compound]    4.08
O=C(Nc1cc(F)cc(Br)c1)C1(C(=O)Nc2cccc(-c3c[nH]c4ncnc(N5CCOCC5)c34)c2)CC1    1.19
COc1cc(S(C)(=O)=O)ccc1Nc1nc(N(C)C)c2c(Cl)c[nH]c2n1    3.54
Cc1cc(F)ccc1NC(=O)C1(C(=O)Nc2cccc(-c3c[nH]c4ncnc(N5CCOCC5)c34)c2)CC1    2.35

# evaluate next
Incoming: Would you mind telling me what dTm value was observed for O=C(Nc1cccc(-c2c[nH]c3ncnc(N4CCOCC4)c23)c1)C1(C(=O)Nc2cc(Br)c(F)cc2F)CC1 ?
Outgoing: 0.77

* * *

target: ~100 representative kinases (Homo sapiens)
Construct: Recombinant protein kinase domains with a concentration of 2 μM
assayName: DSF 100 kinase selectivity screen;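 further: compound tested at 20 µM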
Type: binding
particulars: Protein SLK; DSF; average of three replicates
valueKind: dTm (K)
Numbers only, in K.

Solved entries (count: 2):
O=C(Nc1cccc(-c2c[nH]c3ncnc(N4CCOCC4)c23)c1)C1(C(=O)Nc2ccc(F)c(F)c2)CC1    7.02
C[C@@H]1CN(c2cc(-c3n[nH]c4ccc(OC5(C)CC5)cc34)ncn2)C[C@H](C)O1    -1.23

Here is the next item to consider.
Incoming: Query for ~100 representative kinases (Homo sapiens): what dTm does the record show for CNC(=O)c1cc(Oc2ccc(NC(=O)Nc3cc(C(C)(C)C)nn3-c3ccc4ncccc4c3)c(F)c2)ccn1 [Rebastinib, reference compound] ?
Outgoing: 14.21

* * *

target: ~100 representative kinases (Homo sapiens)
Construct: Recombinant protein kinase domains with a concentration of 2 μM
Sequence (P54762 18-984): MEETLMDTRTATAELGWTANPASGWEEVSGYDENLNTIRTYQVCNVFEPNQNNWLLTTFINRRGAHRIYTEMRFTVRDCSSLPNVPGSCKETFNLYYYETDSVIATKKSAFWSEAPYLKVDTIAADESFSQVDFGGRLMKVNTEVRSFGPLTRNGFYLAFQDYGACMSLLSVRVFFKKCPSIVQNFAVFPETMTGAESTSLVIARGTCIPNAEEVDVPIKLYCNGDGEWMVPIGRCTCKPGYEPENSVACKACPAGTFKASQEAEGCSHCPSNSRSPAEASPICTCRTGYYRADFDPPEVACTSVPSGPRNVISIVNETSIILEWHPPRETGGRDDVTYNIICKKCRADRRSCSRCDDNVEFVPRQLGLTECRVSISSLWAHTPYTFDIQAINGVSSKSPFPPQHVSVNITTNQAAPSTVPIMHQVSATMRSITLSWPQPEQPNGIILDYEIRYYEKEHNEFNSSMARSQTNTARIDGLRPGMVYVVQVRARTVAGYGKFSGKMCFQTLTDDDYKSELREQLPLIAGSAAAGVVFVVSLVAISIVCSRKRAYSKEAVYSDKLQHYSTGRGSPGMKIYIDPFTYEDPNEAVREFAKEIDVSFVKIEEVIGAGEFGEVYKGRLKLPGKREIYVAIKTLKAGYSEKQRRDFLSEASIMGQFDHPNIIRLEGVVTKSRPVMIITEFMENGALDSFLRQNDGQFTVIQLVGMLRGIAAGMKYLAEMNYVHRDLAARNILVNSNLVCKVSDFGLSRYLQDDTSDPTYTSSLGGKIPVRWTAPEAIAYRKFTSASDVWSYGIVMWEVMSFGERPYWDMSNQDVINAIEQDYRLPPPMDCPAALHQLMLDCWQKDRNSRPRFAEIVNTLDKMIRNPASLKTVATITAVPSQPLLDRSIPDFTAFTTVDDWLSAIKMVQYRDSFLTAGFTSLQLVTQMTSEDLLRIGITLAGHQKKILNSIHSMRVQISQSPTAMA
assayName: DSF 100 kinase selectivity screen;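 further: compound tested at 20 µM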
Assay type: binding
particulars: Protein EPHB1; average of three replicates
Kindly state dTm for each of the entries shown.
One number for each entry, in K.

Recorded results for 3 molecules are shown here.
O=C(Nc1cccc(-c2c[nH]c3ncnc(N4CCOCC4)c23)c1)C1(C(=O)Nc2cccc3c2CCC3)CC1    -11.24
COc1cc(C(=O)N2CCOCC2)c(F)cc1Nc1nc(N(C)C)c2c(Cl)c[nH]c2n1    -0.27
Cc1ccc(C(=O)Nc2ccc(CN3CCN(C)CC3)c(C(F)(F)F)c2)cc1C#Cc1c[nH]c2ncnc(N3CCOCC3)c12    4.85

Return reported dTm values for all items listed beneath this line.
1. COc1cc(NC(=O)C2(C(=O)Nc3cccc(-c4c[nH]c5ncnc(N6CCOCC6)c45)c3)CC2)ccc1F
2. Cc1ccc(NC(=O)C2(C(=O)Nc3cccc(-c4c[nH]c5ncnc(N6CCOCC6)c45)c3)CC2)cc1
3. O=C(Nc1cccc(-c2c[nH]c3ncnc(N4CCOCC4)c23)c1)C1(C(=O)Nc2ccc(F)cc2F)CC1
4. COc1cc2c(Oc3ccc(NC(=O)C4(C(=O)Nc5ccc(F)cc5)CC4)cc3F)ccnc2cc1OCCCN1CCOCC1 [Foretinib, reference compound]

Outgoing:
1.66
3.63
2.11
12.70

Can you give me dTm for all of these, one by one?
1. O=C(Nc1ccccc1)C1(C(=O)Nc2cccc(-c3c[nH]c4ncnc(N5CCOCC5)c34)c2)CC1
2. O=C(Nc1ccc(Cl)cc1)C1(C(=O)Nc2cccc(-c3c[nH]c4ncnc(N5CCOCC5)c34)c2)CC1
3. Cc1ccc(-n2nc(C(C)(C)C)cc2NC(=O)Nc2cccc(-c3c[nH]c4nc(Cl)nc(N5CCOCC5)c34)c2)cc1

Outgoing:
2.37
5.42
-0.80

Give dTm for each of the items listed below.
1. Cn1cc(-c2c[nH]c3ncnc(N4CCOCC4)c23)cc1C#N
2. Cc1cc(NC(=O)C2(C(=O)Nc3cccc(-c4c[nH]c5ncnc(N6CCOCC6)c45)c3)CC2)ccc1F
3. O=C(Nc1cccc(-c2c[nH]c3ncnc(N4CCOCC4)c23)c1)C1(C(=O)Nc2cc(Br)c(F)cc2F)CC1
4. O=C(Nc1cccc(-c2c[nH]c3ncnc(N4CCOCC4)c23)c1)C1(C(=O)Nc2ccc(F)c(Cl)c2)CC1
5. Cc1ccc(-n2nc(C(C)(C)C)cc2NC(=O)Nc2cccc(-c3c[nH]c4ncnc(N5CCOCC5)c34)c2)cc1
6. CC(C)(C)c1cc(NC(=O)Nc2cccc(-c3c[nH]c4ncnc(N5CCOCC5)c34)c2)n(-c2ccc3ncccc3c2)n1

Outgoing:
[-0.08, 4.46, -4.24, 3.41, 5.08, 11.35]

Field: dTm. Fill in for each record below.
1. O=C(Nc1cccc(-c2c[nH]c3ncnc(N4CCOCC4)c23)c1)C1(C(=O)Nc2ccc(F)c(F)c2)CC1
2. O=C(Nc1cccc(-c2c[nH]c3ncnc(N4CCOCC4)c23)c1)C1(C(=O)Nc2ccc(F)c(Br)c2)CC1
3. CCc1ccc(NC(=O)C2(C(=O)Nc3cccc(-c4c[nH]c5ncnc(N6CCOCC6)c45)c3)CC2)cc1
4. O=C(Nc1ccc(F)cc1)C1(C(=O)Nc2cccc(-c3c[nH]c4ncnc(N5CCOCC5)c34)c2)CC1
5. O=C(Nc1cc(F)cc(Br)c1)C1(C(=O)Nc2cccc(-c3c[nH]c4ncnc(N5CCOCC5)c34)c2)CC1
6. CNC(=O)c1cc(Oc2ccc(NC(=O)Nc3cc(C(C)(C)C)nn3-c3ccc4ncccc4c3)c(F)c2)ccn1 [Rebastinib, reference compound]
7. O=C(Nc1cccc(-c2c[nH]c3ncnc(N4CCOCC4)c23)c1)C1(C(=O)Nc2ccc(F)c(Br)c2F)CC1
8. CC(C)(C)c1cccc(NC(=O)C2(C(=O)Nc3cccc(-c4c[nH]c5ncnc(N6CCOCC6)c45)c3)CC2)c1

Outgoing:
1. 2.50
2. 1.85
3. 3.72
4. 3.27
5. -2.93
6. 4.28
7. -6.10
8. -3.38
